Listed here: items and their measured CYP1B1 mRNA, average change vs vehicle, RT-PCR.
System: hepatic gene expression
assay-overview: Real-time RT-PCR of hepatic mRNA after 13-week exposure: TCDD 100, PeCDF 200, PCB126 1,000 ng/kg/day, PCB153 1,000 μg/kg/day
Format: in vivo, female Harlan Sprague-Dawley rats
measurement-conditions: liver, 13 weeks; average (± 1 SD) of three RNA pools; normalized to 18S RNA

> print(dat)
                                   molecule                 result
1  Clc1cc2oc3c(Cl)c(Cl)c(Cl)cc3c2cc1Cl [PeCDF, 2,3,4,7,8-pentachlorodibenzofuran]    59.7 (48.3 to 73.8)
2  Clc1ccc(-c2cc(Cl)c(Cl)c(Cl)c2)cc1Cl [PCB126, 3,3′,4,4′,5-pentachlorobiphenyl]  106.4 (98.2 to 115.3)
3  Clc1cc(Cl)c(-c2cc(Cl)c(Cl)cc2Cl)cc1Cl [PCB153, 2,2′,4,4′,5,5′-hexachlorobiphenyl]       −1.2 (−1.6 to 1)

Now look at this entry.
Task: Endpoint output: CYP1B1 mRNA, average change vs vehicle, RT-PCR of Clc1cc2c(cc1Cl)Oc1cc(Cl)c(Cl)cc1O2 [TCDD, 2,3,7,8-tetrachlorodibenzo-p-dioxin] . Value?
Output: 256 (236.3 to 277.3)
